Molecular target: T1, Secreted Protein, Acidic, Rich in Cysteines (SPARC) (UniProt P09486 18-303)
T1 construct: also called osteonectin; SPARC protein
T1 sequence (looked up): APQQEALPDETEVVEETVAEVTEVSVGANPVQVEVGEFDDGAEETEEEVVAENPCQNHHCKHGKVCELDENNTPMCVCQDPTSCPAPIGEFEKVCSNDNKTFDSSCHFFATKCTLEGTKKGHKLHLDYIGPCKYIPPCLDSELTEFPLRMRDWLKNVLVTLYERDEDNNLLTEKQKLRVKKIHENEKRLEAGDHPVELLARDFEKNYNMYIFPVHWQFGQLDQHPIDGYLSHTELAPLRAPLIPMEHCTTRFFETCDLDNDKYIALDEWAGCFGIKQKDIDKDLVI
Assay: phage ELISA on SPARC-coated wells; OD column 2 of 3
From the text: Accordingly, a commercial peptide phage display library (12-mer peptides in M13) was screened for peptides which bind to SPARC. The target, SPARC is an acidic glycoprotein with a PI of 4.6. By immobilization on 96-wells plates with pH 9.6 coating buffer, Ph.D.-12 peptide library was screened four rounds to select peptide binders using phage display technology. Specifically, bound phages were eluted with an acidic eluting solution in the 1st round of screening. […]
Below, each of the binders is paired with its reported OD value.
In your answer, state the number alone without any accompanying words.

{"columns": ["binder", "assay-endpoint", "reported-value"],
 "data": [
  ["IPFATAAYNAPG (also called clone 191)", "OD", 0.567],
  ["VSHPPRFPGWPQ (also called clone 59)", "OD", 0.628],
  ["IDKPLHVVLALG (also called clone 184)", "OD", 0.635],
  ["VPATRVSPTPYA (also called clone 133)", "OD", 0.554],
  ["YTRLHHWIPPQR (12-mer from the Ph.D.-12 phage library; The peptide was cloned into pFUSE-hIgG1-Fc2 and expressed as the PD 15-Fc fusion; also called peptide 15; PD 15-Fc) [PD 15]", "OD", 0.516]
]}

Q) I am curious: what OD value has been reported for QILGYPTNLGPF (also called clone 135) ?
A) 0.652

Q) Here is the next binder: SAHTLAAWFAKP (also called clone 204)
A) 0.748

Q) Now this one: TQWHDDSTFYWL (also called clone 186)
A) 0.985

Q) # iterate: VGNMPFVHPHQW (also called clone 192)
A) 0.5

Q) Again, but for HYFSRTQTLSTL (also called clone 194)
A) 0.514

Q) Follow-up entry: TTHSELSGYVEL (also called clone 188)
A) 0.682

Q) One more binder: LSTHKLFHSHSQ (also called clone 180)
A) 1.28

These data points were gathered from patent US20120014954A1.
